viability at 24 h reference
assay: Cell viability after 24 h treatment; type: cell-based, human; details: human, KCNJ16 knockout HK-2 cells (kidney proximal tubular), Cell viability, KCNJ16 KO, Rep4; KCNJ16 knockout HK-2 cells, 24 h; replicate 4; Fig. 6b; read-out: Cell viability, KCNJ16 KO, Rep4
Residues, ends and D or L forms follow the SMILES beside them.
# unit: % | format: bare number

Compound	Result
CCCCCCCC(=O)N[C@@H](CCN)C(=O)N[C@H](C(=O)N[C@@H](CCN)C(=O)N[C@H]1CCNC(=O)[C@H]([C@@H](C)O)NC(=O)[C@H](CCN)NC(=O)[C@H](CCN)NC(=O)[C@H](CC)NC(=O)[C@@H](CC(C)C)NC(=O)[C@H](CCN)NC1=O)[C@@H](C)O [Lipopeptide F319] (HELM PEPTIDE1{[CCCCCCCC(=O)[*:2]].[Dab].T.[Dab].[Dab].[Dab].[dL].[Abu].[Dab].[Dab].T}$PEPTIDE1,PEPTIDE1,5:R3-11:R2$$$V2.0)	92.6

Prompt: Fill in: viability at 24 h of CC[C@@H]1NC(=O)[C@@H](CC(C)C)NC(=O)[C@H](CCN)NC(=O)[C@@H](NC(=O)[C@H](CN)NC(=O)[C@@H](NC(=O)[C@H](CCN)NC(=O)c2ccc(Cl)cc2Cl)[C@@H](C)O)CCNC(=O)[C@H]([C@@H](C)O)NC(=O)[C@H](CCN)NC(=O)[C@H](CCN)NC1=O [Lipopeptide F365] (HELM PEPTIDE1{[O=C(c1ccc(Cl)cc1Cl)[*:2]].[Dab].T.[NC[C@H](N[*:1])C(=O)[*:2]].[Dab].[Dab].[dL].[Abu].[Dab].[Dab].T}$PEPTIDE1,PEPTIDE1,5:R3-11:R2$$$V2.0) is ___
Completion: 73.7
